- assayed_target: Prostate-specific antigen (Homo sapiens, UniProt P07288)
- Sequence (P07288 whole entry): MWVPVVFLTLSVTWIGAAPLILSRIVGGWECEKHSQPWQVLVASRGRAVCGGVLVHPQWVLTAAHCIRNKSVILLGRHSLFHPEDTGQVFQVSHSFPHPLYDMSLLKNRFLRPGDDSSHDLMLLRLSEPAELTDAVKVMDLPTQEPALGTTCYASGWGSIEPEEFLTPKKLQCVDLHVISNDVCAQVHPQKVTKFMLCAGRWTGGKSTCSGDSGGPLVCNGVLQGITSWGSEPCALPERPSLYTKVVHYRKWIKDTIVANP
- assay_text: Prodrug activation assessed as prostate specific antigen (unknown origin)-mediated drug metabolism in Tris/HCl buffer pH 8 at 100 uM measured as half life by HPLC analysis
- Type: ADME
- measurement_conditions: pH 8, 100 µM
Starred links: 1 amine or outer side, 2 acyl side, 3 side chain; linkers in the order of their positions; H or OH if unused. Non-standard residues stand in square brackets, D forms with d. Residues, ends and D or L forms follow the SMILES beside them. *: point of attachment. X1 = NP(=O)(OCc1c(F)c(F)c(N*)c(F)c1F)N(CCCl)CCCl; X3 = NP(=O)(OCc1c(F)cc(N*)cc1F)N(CCCl)CCCl; X5 = NP(=O)(OCc1ccc(N*)cc1F)N(CCCl)CCCl; X4 = NP(=O)(OCc1ccc(N*)cc1)N(CCCl)CCCl; Glutaryl = O=C(CCCC(=O)[*:2])[*:1]; Hyp = O=C(O)[C@@H]1C[C@@H](O)CN1; Chg = N[C@H](C(=O)O)C1CCCCC1
t1/2 under 1 h gets condition met, anything at or over 1 h gets condition not met.

[
  {
    "compound": "COc1cccc2c1C(=O)c1c(O)c3c(c(O)c1C2=O)C[C@](O)(C(=O)CO)C[C@H]3O[C@@H]1C[C@@H](NC(=O)[C@@H](CC(C)C)NC(=O)[C@@H](CO)NC(=O)[C@@H](CCC(N)=O)NC(=O)[C@H](NC(=O)[C@@H](CO)NC(=O)[C@@H](C)NC(=O)[C@@H]2C[C@@H](O)CN2C(=O)CCCC(=O)O)C2CCCCC2)[C@@H](O)[C@@H](C)O1 (stereo in doubt)",
    "classification": "condition met"
  },
  {
    "compound": "C[C@H](NC(=O)[C@@H]1C[C@@H](O)CN1C(=O)CCCC(=O)O)C(=O)N[C@@H](CO)C(=O)N[C@H](C(=O)N[C@@H](CCC(N)=O)C(=O)Nc1c(F)c(F)c(COP(N)(=O)N(CCCl)CCCl)c(F)c1F)C1CCCCC1 (stereo not given in full) (Glutaryl-[Hyp]AS[Chg]Q-X1)",
    "classification": "condition not met"
  },
  {
    "compound": "C[C@H](NC(=O)[C@@H]1C[C@@H](O)CN1C(=O)CCCC(=O)O)C(=O)N[C@@H](CO)C(=O)N[C@H](C(=O)N[C@@H](CCC(N)=O)C(=O)Nc1ccc(COP(N)(=O)N(CCCl)CCCl)c(F)c1)C1CCCCC1 (stereo not given in full) (Glutaryl-[Hyp]AS[Chg]Q-X5)",
    "classification": "condition met"
  },
  {
    "compound": "C[C@H](NC(=O)[C@@H]1C[C@@H](O)CN1C(=O)CCCC(=O)O)C(=O)N[C@@H](CO)C(=O)N[C@H](C(=O)N[C@@H](CCC(N)=O)C(=O)Nc1ccc(COP(N)(=O)N(CCCl)CCCl)cc1)C1CCCCC1 (stereo not given in full) (Glutaryl-[Hyp]AS[Chg]Q-X4)",
    "classification": "condition not met"
  },
  {
    "compound": "C[C@H](NC(=O)[C@@H]1C[C@@H](O)CN1C(=O)CCCC(=O)O)C(=O)N[C@@H](CO)C(=O)N[C@H](C(=O)N[C@@H](CCC(N)=O)C(=O)Nc1cc(F)c(COP(N)(=O)N(CCCl)CCCl)c(F)c1)C1CCCCC1 (stereo not given in full) (Glutaryl-[Hyp]AS[Chg]Q-X3)",
    "classification": "condition not met"
  }
]
